Hey, just so you know, these numbers are from ChEMBL document CHEMBL1140148.

- protocolDescription: Cmax in rat at 1 mg/kg, iv
- Type: ADME, organism-based
- Set-up: dose 1 mg/kg, route intravenous
- statedConditions: in vivo
attributeMeasured: Cmax (ng/mL)
Numbers only, in ng/mL.

Lab note: CN1CCN(c2cc(-c3ccc(C#N)cc3)nc(N)n2)CC1 gave Cmax of 160

###

- targetEntity: Histamine H4 receptor (Homo sapiens, UniProt Q9H3N8)
- Sequence (Q9H3N8 whole entry): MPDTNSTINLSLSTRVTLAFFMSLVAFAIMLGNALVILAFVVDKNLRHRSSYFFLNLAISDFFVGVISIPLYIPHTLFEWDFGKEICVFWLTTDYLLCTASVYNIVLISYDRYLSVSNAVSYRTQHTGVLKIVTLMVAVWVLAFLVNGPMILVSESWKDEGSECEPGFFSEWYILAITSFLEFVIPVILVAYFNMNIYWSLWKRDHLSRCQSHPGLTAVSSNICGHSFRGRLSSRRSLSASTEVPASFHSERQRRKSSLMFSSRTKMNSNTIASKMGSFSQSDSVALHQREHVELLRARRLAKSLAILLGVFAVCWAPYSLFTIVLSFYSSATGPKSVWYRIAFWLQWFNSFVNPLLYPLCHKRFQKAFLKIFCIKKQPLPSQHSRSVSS
- protocolDescription: Agonist activity at human histamine H4 receptor expressed in HEK293 cells coexpressing Gqi5 protein assessed as calcium flux by FLIPR assay
attributeMeasured: EC50 (nM)
Numbers only, in nM.

These solved cases illustrate the format of a correct answer.
>>> valuemeasured("CN1CCN(c2cc(NCc3ccccc3)nc(N)n2)CC1")
64.6
>>> valuemeasured("CN1CCN(c2nc(N)ncc2N)CC1")
33.9
>>> valuemeasured("CN1CCN(c2cc(-c3ccc(C#N)cc3)cc(N)n2)CC1")
2340
>>> valuemeasured("COc1nc(N2CCN(C)CC2)cc(C(C)(C)C)n1")
1200
>>> valuemeasured("CN1CCN(c2cc(C(C)(C)C)nc(N(C)C)n2)CC1")
11500

I need EC50 for every entry listed below, if you could help.
1. COc1ncccc1-c1cc(N2CCN(C)CC2)nc(N)n1
2. CN1CCN(c2cc(C(C)(C)C)nc(Cl)n2)CC1
3. CN1CCN(c2cc(-c3c[nH]cn3)nc(N)n2)CC1

A.
26.9
4900
16.2
